The values you see were collected from paper PMC9482650.

Target: T1, DLG3_3, Q92796
T1 sequence (Q92796 374-475, limits assumed, looked up): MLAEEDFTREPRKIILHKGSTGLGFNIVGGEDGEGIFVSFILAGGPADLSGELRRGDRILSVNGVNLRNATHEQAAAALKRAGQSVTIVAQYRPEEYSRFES
Experiment: holdup assay
Design: key: below the threshold = too weak to quantify, mostly under pKd 3.1 to 4
Settings: plain residues with an end cap or a label only (N-terminal biotin on a linker: ado-ado)
observable: pKd

Some binders with known pKd results, for comparison:
{"binder": "CLREWCDAFL [BANF1, O75531]", "pKd": "below the threshold"}
{"binder": "LRSPRTPSEV [OR10G3, Q8NGC4]", "pKd": "below the threshold"}
{"binder": "QGPVETESVV [SLC45A4, Q5BKX6]", "pKd": "below the threshold"}
{"binder": "SKENVQETQI [LRRC4B, Q9NT99]", "pKd": 3.68}
{"binder": "HLRARKSEWV [GJD4, Q96KN9]", "pKd": "below the threshold"}
{"binder": "TKGPRGPTRV [SAPCD1, Q5SSQ6]", "pKd": 4.44}
{"binder": "KKAPTNEFYA [SDC4, P31431]", "pKd": "below the threshold"}
{"binder": "GQEEQVTTRL [TRPC5, Q9UL62]", "pKd": "below the threshold"}

# lookup: pKd of PLSPEQPTKL [TRIM50, Q86XT4]
below the threshold

And LPAHHNATRL [SLC34A1, Q06495;Q06495-1] ?
below the threshold

And IKAIVDLTGL [TRAF2, Q12933] ?
below the threshold

And SAAKVLTSMC [GHRHR, Q02643] ?
below the threshold

And QMNQTLPVQV [EPHB3, P54753] ?
3.56

And RKPKPSSSCC [RAB9A, P51151] ?
below the threshold
